- target-or-system: T1, His-tagged P3028 (human, also: His tag, length and end not given here)
- T1 construct: in solution at 0.5 ug/mL, detected with mouse anti-His antibody and rabbit anti-mouse peroxidase (rampo); also called PGE73; His-tag-P3028; not shown: His tag
- T1 peptide: VFDEFKPLVEEPQNLIK
- assay-explanation: PEPSCAN ELISA, peptide on chip;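 also: binding detected by peroxidase ELISA with ABTS, OD405 colour imaged by CCD camera before and after staining, raw OD405 reported as rampo units, air-bubble wells scored 0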
Ends that are not written are not given here.
quantity: RAMPO Score (rampo units)
Numbers only, in rampo units.

>  <binder>
NKLDTFFVKLSLFTER [SEQ ID NO 276]

>  <experimental-value>
445

$$$$

Report RAMPO Score for every entry below.
1. KKLDTFFVKLSLFWER [SEQ ID NO 386]
2. KKLDTFFVKLHLFTER [SEQ ID NO 345]
3. KKLDTPFVKLSLFTER [SEQ ID NO 317]
4. KKLDTNFVKLSLFTER [SEQ ID NO 316]

[374, 535, 497, 446]

Values were extracted from patent US20180177842A1.
